AC50, Melanocortin receptor 3 (Homo sapiens, UniProt P41968), per-entry values.

compound	AC50
CN1CCCN=C1COC(=O)C(O)(c1ccccc1)C1CCCCC1 (stereo not drawn) [OXYPHENCYCLIMINE]	> 10 µM
CN(C)[C@@H]1C(O)=C(C(N)=O)C(=O)[C@@]2(O)C(O)=C3C(=O)c4c(O)ccc(Cl)c4[C@@H](O)[C@H]3C[C@@H]12 [DEMECLOCYCLINE]	> 10 µM
CC(=O)N[C@H]1[C@H]([C@H](O)[C@H](O)CO)OC(C(=O)O)=C[C@@H]1N=C(N)N [ZANAMIVIR]	> 30 µM
COc1c(N2CCNC(C)C2)c(F)cc2c(=O)c(C(=O)O)cn(C3CC3)c12 (stereo not drawn) [GATIFLOXACIN]	> 10 µM
Cc1cccc(C)c1NC(=O)C1CCCCN1C (stereo not drawn) [MEPIVACAINE]	> 30 µM
NS(=O)(=O)c1cc(-c2nnn[nH]2)c(NCc2cccs2)cc1Cl [AZOSEMIDE]	> 30 µM
CC(=O)O[C@@]12CO[C@@H]1C[C@H](O)[C@@]1(C)C(=O)[C@H](O)C3=C(C)[C@@H](OC(=O)[C@H](O)[C@@H](NC(=O)OC(C)(C)C)c4ccccc4)C[C@@](O)([C@@H](OC(=O)c4ccccc4)[C@H]21)C3(C)C [DOCETAXEL ANHYDROUS]	> 30 µM
COC(=O)[C@@H]1CC2=CC(=O)CC[C@]2(C)[C@@]23O[C@@H]2C[C@@]2(C)[C@@H](CC[C@@]24CCC(=O)O4)[C@H]13 [EPLERENONE]	> 30 µM
Cc1ccc(C(=O)c2cc(O)c(O)c([N+](=O)[O-])c2)cc1 [TOLCAPONE]	> 10 µM
CC(C)NNC(=O)c1ccncc1 [IPRONIAZID]	> 30 µM

List reported AC50 for each of these compounds:
1. CCNC(C)Cc1cccc(C(F)(F)F)c1 (stereo not drawn) [FENFLURAMINE]
2. O=C(O)c1cc(-c2ccc(F)cc2F)ccc1O [DIFLUNISAL]
3. N[C@@H](CSCC(=O)O)C(=O)O [CARBOCYSTEINE]

> 30 µM
> 10 µM
> 30 µM

###

Answer each item with its documented AC50.
# test.system: Glutamate receptor ionotropic, NMDA 1 (Rattus norvegicus, UniProt P35439); also: assay procedure not described here

The examples below pair each entry with its known result.
compound	AC50
CNC(=O)c1cc(Oc2ccc(NC(=O)Nc3ccc(Cl)c(C(F)(F)F)c3)cc2)ccn1 [SORAFENIB]	> 30 µM
C[N+](C)(C)CC(=O)O [BETAINE]	> 30 µM
COc1ccccc1OCC(O)COC(N)=O (stereo unspecified) [METHOCARBAMOL]	> 10 µM
CCCC(CCC)C(=O)O[C@H]1C[C@H]2CC[C@@H](C1)[N+]2(C)C [ANISOTROPINE]	> 30 µM
C#CC1(OC(N)=O)CCCCC1 [ETHINAMATE]	> 10 µM

Data request, read-out AC50, for CN1C(=O)N(C)C2C1N(C)C(=O)N2C (stereo unspecified) [MEBICAR]
> 30 µM

###

# test.system: Muscarinic acetylcholine receptor M2 (Homo sapiens, UniProt P08172); also: assay procedure not described here
# Sequence (P08172 whole entry): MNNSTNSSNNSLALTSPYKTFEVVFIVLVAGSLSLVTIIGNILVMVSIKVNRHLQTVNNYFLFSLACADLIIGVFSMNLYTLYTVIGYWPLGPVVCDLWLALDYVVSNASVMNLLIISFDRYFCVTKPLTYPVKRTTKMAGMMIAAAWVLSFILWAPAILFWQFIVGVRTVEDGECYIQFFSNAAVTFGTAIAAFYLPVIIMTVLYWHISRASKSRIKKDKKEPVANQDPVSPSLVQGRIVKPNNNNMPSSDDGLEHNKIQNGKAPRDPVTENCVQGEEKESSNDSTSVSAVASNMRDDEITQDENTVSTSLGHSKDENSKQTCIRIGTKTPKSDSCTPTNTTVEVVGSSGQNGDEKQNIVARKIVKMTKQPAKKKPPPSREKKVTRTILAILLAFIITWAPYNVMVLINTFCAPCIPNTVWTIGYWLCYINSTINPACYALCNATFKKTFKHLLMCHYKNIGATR
# Type: functional, cell-based
Answer each item with its documented AC50.

The examples below pair each entry with its known result.
compound	experimental.value
Nc1ncnc2c1ncn2[C@@H]1O[C@H](COP(=O)(O)O)[C@@H](O)[C@H]1O [ADENOSINE PHOSPHATE]	> 30 µM
CC(C)[N+](C)(CCC(C(N)=O)(c1ccccc1)c1ccccc1)C(C)C [ISOPROPAMIDE]	> 10 µM
CCCC(=O)N1CCCN(c2nc(N)c3cc(OC)c(OC)cc3n2)CC1	> 30 µM
CCCCCN(C)CCC(O)(P(=O)(O)O)P(=O)(O)O	> 30 µM
CO/N=C(\C(=O)N[C@@H]1C(=O)N2C(C(=O)[O-])=C(C[N+]3(C)CCCC3)CS[C@H]12)c1csc(N)n1	> 300 µM
OCCN1CCN(CCCN2c3ccccc3C=Cc3ccccc32)CC1	> 30 µM
CC(C)NNC(=O)c1ccncc1	> 30 µM
CN[C@@H]1[C@H](O)[C@H](NC)[C@H]2O[C@@]3(O)C(=O)C[C@@H](C)O[C@H]3O[C@@H]2[C@H]1O	> 10 µM
CC(C)Cc1ccc(CC(=O)O)cc1	> 30 µM

Consider now this further compound.
Data request, read-out AC50, for "CCN(CC)CCOC(=O)c1ccc(N)cc1"
> 10 µM

This collection of values is drawn from ChEMBL document CHEMBL5291721.
